Measurement target: SIRT1 (Homo sapiens, UniProt Q96EB6)
Assay text: TAMRA based mass spectrometry assay of SIRT1 deacetylase activation
Type: biochemical
Measurement setup: concentration that results in 150% activation of SIRT1; TAMRA peptide substrate
Experimental endpoint: TAMRA EC1.5 (μM)

Compound smiles | TAMRA EC1.5 (μM)
O=C(Nc1ccnc2cc(-c3ccccc3C(F)(F)F)nn12)c1cccc(N2CCC2)n1 | A (EC1.5<1 μM)
O=C(Nc1nccs1)c1ccnn2cc(-c3ccccc3F)nc12 | C (EC1.5>25 μM)
Cc1nc(C(=O)Nc2ccnc3cc(-c4ccccc4C(F)(F)F)nn23)cs1 | A (EC1.5<1 μM)
O=C(Nc1ccccn1)c1cc(N2CCOCC2)nn2cc(-c3cccc(F)c3)nc12 | C (EC1.5>25 μM)

O=C(Nc1ccncn1)c1ccnc2cc(-c3cccc(C(F)(F)F)c3)nn12 has a reported TAMRA EC1.5 (μM) of C (EC1.5>25 μM)

O=C(Nc1ccnc2cc(-c3ccccc3C(F)(F)F)nn12)c1cccnc1 has a reported TAMRA EC1.5 (μM) of B (EC1.5 1−25 μM)

O=C(Nc1cccc(N2CCOCC2)n1)c1ccnn2cc(-c3cccc(Cl)c3)nc12 has a reported TAMRA EC1.5 (μM) of C (EC1.5>25 μM)

O=C(Nc1nccs1)c1cc(N2CCOCC2)nn2cc(-c3ccccc3F)nc12 has a reported TAMRA EC1.5 (μM) of C (EC1.5>25 μM)

O=C(Nc1ccnc2cc(-c3cccc(C(F)(F)F)c3)nn12)c1ccccn1 has a reported TAMRA EC1.5 (μM) of C (EC1.5>25 μM)

O=C(Nc1nccs1)c1cc(N2CCOCC2)nn2cc(-c3cccc(C(F)(F)F)c3)nc12 has a reported TAMRA EC1.5 (μM) of C (EC1.5>25 μM)

Cc1cnc(NC(=O)c2ccnn3cc(-c4cccc(C(F)(F)F)c4)nc23)s1 has a reported TAMRA EC1.5 (μM) of C (EC1.5>25 μM)

----------
Measurement target: SIRT1 (Homo sapiens, UniProt Q96EB6)
Sequence (Q96EB6 1-747): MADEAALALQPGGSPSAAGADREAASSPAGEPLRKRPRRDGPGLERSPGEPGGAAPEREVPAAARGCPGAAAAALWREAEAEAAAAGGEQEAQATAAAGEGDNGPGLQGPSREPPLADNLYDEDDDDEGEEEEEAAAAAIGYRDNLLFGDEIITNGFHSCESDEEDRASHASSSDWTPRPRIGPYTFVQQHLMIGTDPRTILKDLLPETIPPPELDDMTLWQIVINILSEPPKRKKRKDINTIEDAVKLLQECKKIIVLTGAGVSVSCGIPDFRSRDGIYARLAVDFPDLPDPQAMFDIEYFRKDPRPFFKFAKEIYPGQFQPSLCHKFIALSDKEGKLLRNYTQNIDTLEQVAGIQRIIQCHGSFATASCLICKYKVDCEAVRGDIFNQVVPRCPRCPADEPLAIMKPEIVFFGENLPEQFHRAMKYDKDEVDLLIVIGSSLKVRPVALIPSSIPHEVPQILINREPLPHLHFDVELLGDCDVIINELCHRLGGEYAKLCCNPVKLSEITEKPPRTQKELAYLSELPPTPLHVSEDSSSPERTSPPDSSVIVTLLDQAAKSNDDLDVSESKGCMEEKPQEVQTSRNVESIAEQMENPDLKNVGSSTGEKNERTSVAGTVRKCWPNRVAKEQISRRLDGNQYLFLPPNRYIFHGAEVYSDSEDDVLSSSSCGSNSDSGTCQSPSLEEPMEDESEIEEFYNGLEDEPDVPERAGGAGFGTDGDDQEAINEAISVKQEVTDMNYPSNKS
Assay text: TAMRA based mass spectrometry assay of SIRT1 deacetylase activation
Assay type: biochemical
Measurement setup: percent maximum fold activation relative to control (100%); TAMRA peptide substrate

Compound smiles | Measurement target | TAMRA % Fold Act
O=C(Nc1cnccn1)c1ccnc2cc(-c3cccc(C(F)(F)F)c3)nn12 | SIRT1 (Homo sapiens, UniProt Q96EB6) | B (Fold Activation<350%)
O=C(Nc1ccnc(N2CCOCC2)c1)c1ccnn2cc(-c3cccc(C(F)(F)F)c3)nc12 | SIRT1 (Homo sapiens, UniProt Q96EB6) | B (Fold Activation<350%)
O=C(Nc1ccncc1)c1cc(N2CCOCC2)nn2cc(-c3cccc(C(F)(F)F)c3)nc12 | SIRT1 (Homo sapiens, UniProt Q96EB6) | B (Fold Activation<350%)
